Each recorded value in this set is attributed to patent US20070225351A1.

# protocol-summary: Toxicokinetic evaluation in dogs
# Format: in vivo
# assay-conditions: male, beagle, dog, in vivo, po, 6 mg/kg/day, male dogs, 6 mg/kg/day oral, Day 0
quantity-measured: Cmax (ng/mL)
The reply should contain only the number, in ng/mL.

For this compound ( Clc1ccc([C@]23CNCC2C3)cc1Cl (single isomer, unassigned; (+)) ), measured Cmax is 4640

====

# protocol-summary: Toxicokinetic evaluation in dogs
# Assay type: in vivo
# assay-conditions: male, beagle, dog, blood, po, 2 mg/kg/day, male dogs, 2 mg/kg/day oral, Day 0
quantity-measured: Cmax (ng/mL)
# output: bare number, implied unit ng/mL

Quick note, Cmax for Clc1ccc([C@]23CNCC2C3)cc1Cl (single isomer, unassigned; (+)) landed at 507

====

# protocol-summary: Toxicokinetic evaluation in dogs
# Format: in vivo
# assay-conditions: female, beagle, dog, blood, po, 6 mg/kg/day, female dogs, 6 mg/kg/day oral, Day 88
quantity-measured: Cmax (ng/mL)
Reply numerically in ng/mL, unit not repeated.

Reported Cmax for Clc1ccc([C@]23CNCC2C3)cc1Cl (single isomer, unassigned; (+)) was 4850

====

# protocol-summary: Toxicokinetic evaluation in rats
# assay-conditions: male, Crl:CD(SD)IGS BR, rat, in vivo, po, 60 mg/kg/day, Cmax
quantity-measured: Cmax
Note to self: number, then unit, no commentary.

Noted for Clc1ccc([C@]23CNCC2C3)cc1Cl (single isomer, unassigned; (+)) : its Cmax reads 3.69 µg/mL

====

# protocol-summary: Toxicokinetic evaluation in dogs
# Assay type: in vivo
# assay-conditions: female, beagle, dog, blood, po, 20 mg/kg/day, female dogs, 20 mg/kg/day oral, Day 88
quantity-measured: Tmax (h)
// return numeric value only (unit: h, not printed)

Given item Clc1ccc([C@]23CNCC2C3)cc1Cl (single isomer, unassigned; (+)) , the value recorded as its Tmax is 1

====

# protocol-summary: Toxicokinetic evaluation in dogs
# Type: in vivo
# assay-conditions: male, beagle, dog, blood, po, 2 mg/kg/day, male dogs, 2 mg/kg/day oral, Day 0; read-out: AUC0-24 h
quantity-measured: AUC(0-t)

The recorded AUC(0-t) for entry Clc1ccc([C@]23CNCC2C3)cc1Cl (single isomer, unassigned; (+)) equals 1570 ng·h/mL

====

# protocol-summary: Toxicokinetic evaluation in rats
# assay-conditions: male, Crl:CD(SD)IGS BR, rat, in vivo, po, 60 mg/kg/day, AUC0-24 h
quantity-measured: AUC(0-t) (ng·h/mL)
// units = ng·h/mL; emit number, no label

# AUC(0-t) of Clc1ccc([C@]23CNCC2C3)cc1Cl (single isomer, unassigned; (+)) = 36300

====

# protocol-summary: Toxicokinetic evaluation in rats
# assay-conditions: female, Crl:CD(SD)IGS BR, rat, in vivo, po, 10 mg/kg/day, Cmax
quantity-measured: Cmax (ng/mL)
Give the number; ng/mL is assumed, so skip it.

Documented Cmax of Clc1ccc([C@]23CNCC2C3)cc1Cl (single isomer, unassigned; (+)) : 1390

====

# protocol-summary: Toxicokinetic evaluation in dogs
# Type: in vivo
# assay-conditions: female, beagle, dog, in vivo, po, 6 mg/kg/day, female dogs, 6 mg/kg/day oral, Day 88; read-out: AUC0-24 h
quantity-measured: AUC(0-t)
Don't forget the unit after the value.

Recorded AUC(0-t) (compound Clc1ccc([C@]23CNCC2C3)cc1Cl (single isomer, unassigned; (+)) ): 15900 ng·h/mL
